measurement-target: Ras guanyl-releasing protein 3 (Homo sapiens, UniProt Q8IV61)
Sequence (Q8IV61 whole entry): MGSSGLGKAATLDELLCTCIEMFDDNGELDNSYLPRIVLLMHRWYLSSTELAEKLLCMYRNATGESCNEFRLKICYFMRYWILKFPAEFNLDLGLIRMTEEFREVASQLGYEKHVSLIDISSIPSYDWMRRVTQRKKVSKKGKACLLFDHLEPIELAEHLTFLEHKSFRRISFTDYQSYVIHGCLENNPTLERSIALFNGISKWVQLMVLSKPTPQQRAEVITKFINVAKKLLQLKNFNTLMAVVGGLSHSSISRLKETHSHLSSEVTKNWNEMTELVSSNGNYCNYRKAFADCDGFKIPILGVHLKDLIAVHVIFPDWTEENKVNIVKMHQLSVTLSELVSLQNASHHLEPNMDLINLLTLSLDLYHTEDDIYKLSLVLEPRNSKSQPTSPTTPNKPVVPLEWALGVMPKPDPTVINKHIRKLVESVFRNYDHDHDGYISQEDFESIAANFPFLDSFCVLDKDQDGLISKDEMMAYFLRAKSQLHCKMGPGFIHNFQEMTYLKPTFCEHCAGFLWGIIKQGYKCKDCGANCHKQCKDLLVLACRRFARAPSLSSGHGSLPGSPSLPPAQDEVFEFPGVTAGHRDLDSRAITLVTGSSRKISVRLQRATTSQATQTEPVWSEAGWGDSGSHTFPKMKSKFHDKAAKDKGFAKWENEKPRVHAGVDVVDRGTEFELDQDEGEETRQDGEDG
experiment-summary: Displacement of [3H]PDBu from RasGRP3 expressed in cells
assay-endpoint: Ki (nM)

Example cases with answers are listed next.
Looking up CCCC(CCC)C(=O)OCC1(CO)C/C(=C\c2ccccn2)C(=O)O1 (stereo not given) , I see its Ki listed as 0.72

Looking up CN(C)c1ccc(C(=O)OCC2(CO)C/C(=C/c3ccncc3)C(=O)O2)cc1 (stereo not given) , I see its Ki listed as 2360

Looking up COc1ccc(C(=O)OCC2(CO)C/C(=C\c3cccnc3)C(=O)O2)cc1 (stereo not given) , I see its Ki listed as 81

Looking up COc1ccc(C(=O)OCC2(CO)C/C(=C/c3ccc4ccccc4n3)C(=O)O2)cc1 (stereo not given) , I see its Ki listed as 1390

Looking up CCCC(CCC)C(=O)OCC1(CO)C/C(=C\c2cnc3ccccc3c2)C(=O)O1 (stereo not given) , I see its Ki listed as 0.52

Looking up CN(C)c1ccc(C(=O)OCC2(CO)C/C(=C\c3ccncc3)C(=O)O2)cc1 (stereo not given) , I see its Ki listed as 54

1. CN(C)c1ccc(C(=O)OCC2(CO)C/C(=C\c3ccccn3)C(=O)O2)cc1 (stereo not given)
2. COc1ccc(C(=O)OCC2(CO)C/C(=C/c3ccncc3)C(=O)O2)cc1 (stereo not given)
Which has the smaller recorded Ki, 1 or 2 ? Mark your selection by writing its label.
1

I. CCCC(CCC)C(=O)OCC1(CO)C/C(=C/c2ccccn2)C(=O)O1 (stereo not given)
II. COc1ccc(C(=O)OCC2(CO)C/C(=C/c3cnc4ccccc4c3)C(=O)O2)cc1 (stereo not given)
Among I and II , which shows a numerically higher Ki result? Mark your selection by writing its label.
II
(II: 907 nM, I: 83 nM)

Just for reference, ChEMBL document CHEMBL1140034 is where these values come from.
